Overview of recorded LD50 for various molecules
- experiment_description: Oral toxicity testing in mice (ALD50, ATD50)
- stated_conditions: mouse, in vivo; mice, oral; approximate lethal dose for half the animals; read-out: Toxicity ALD50
- Method: ^(1) Various oral doses of from 5 mg/kg to 2000 mg/kg are given to 2 mice each; ALD50 is the approximate lethal dose for half the animals ATD50 is the approximate lowest dose where signs of physiologic or […]

molecule="COc1ccc(C(=O)Nc2ccccc2CCC2CCCCN2C)cc1 (centres unmarked) [I, reference compound]" reported_result="50 to 100 mg/kg"

--- query ---
Quick one: LD50 of COc1ccc(C(=O)Nc2ccccc2CCC2CCCC[N+]2(C)C)cc1.[I-] (centres unmarked) ?
> 2000 mg/kg

###

- experiment_description: Oral toxicity testing in mice (ALD50, ATD50)
- stated_conditions: mouse, in vivo, po
metric_name: TD50

Which TD50 is reported for this molecule? COc1ccc(C(=O)Nc2ccccc2CCC2CCCC[N+]2(C)Cc2ccccc2)cc1 (stereo not shown) [IIb, Hydrate]
125 to 250 mg/kg

###

- experiment_description: Oral toxicity testing in mice (ALD50, ATD50)
- stated_conditions: mouse, in vivo; mice, oral; approximate lowest dose where signs of physiologic or neurologic deficit appear; read-out: Toxicity ATD50
metric_name: TD50 (mg/kg)
Express your answer in mg/kg, writing the number without its unit.

Item under review: COc1ccc(C(=O)Nc2ccccc2CCC2CCCC[N+]2(C)C)cc1.[I-] (centres unmarked) . Reported TD50?
250

This collection of values is drawn from patent US4321386A.
